- target_under_test: CCR7 (Homo sapiens, UniProt P32248)
- Construct: purchased Promega (in-house HiBiT-GPCR construct library, NanoBRET)
- Sequence (P32248 25-378): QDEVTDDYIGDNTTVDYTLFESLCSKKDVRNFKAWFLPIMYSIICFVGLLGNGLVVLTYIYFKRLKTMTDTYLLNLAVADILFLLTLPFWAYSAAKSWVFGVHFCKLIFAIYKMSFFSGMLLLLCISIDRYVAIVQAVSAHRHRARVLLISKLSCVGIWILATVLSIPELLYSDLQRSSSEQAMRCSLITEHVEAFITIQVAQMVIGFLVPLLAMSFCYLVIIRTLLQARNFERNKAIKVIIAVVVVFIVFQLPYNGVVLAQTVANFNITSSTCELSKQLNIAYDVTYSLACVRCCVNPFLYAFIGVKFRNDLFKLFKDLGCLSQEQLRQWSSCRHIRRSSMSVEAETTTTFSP
- experiment_notes: NanoBRET screen HiBiT-CCR7 in HEK293
- Assay type: binding
- measurement_parameters: CCR7; tracer 0.1μM
Threshold rule: NanoBRET Fold Response greater than or equal to 1 is 1; below that, -1.

Reference set, count: 3
{"columns": ["compound", "cat"],
 "data": [
  ["O=C(CCc1ccc2n1[B-](F)(F)[N+]1=C(c3ccc[nH]3)C=CC1=C2)NCCOCCOCCNC(=O)OCCOCCN1CCN(C2=Nc3ccccc3Sc3ccccc32)CC1 [Quetiapine-a-2-NB590]", 1],
  ["COc1ccccc1N1CCN(CCCCN2C(=O)c3ccc(CNC(=O)CCOCCOCCOCCOCCNC(=O)CCc4ccc5n4[B-](F)(F)[N+]4=C(c6ccc[nH]6)C=CC4=C5)cc3C2=O)CC1 [NAN-190-2-NB590]", -1],
  ["N#CN=C(NCCCOc1cccc(CN2CCCCC2)c1)NCCNC(=O)CCOCCOCCOCCOCCNC(=O)CCc1ccc2n1[B-](F)(F)[N+]1=C(c3ccc[nH]3)C=CC1=C2 [Aminopotentidine-2-NB590]", -1]
]}

Task: Tell me whether NanoBRET Fold Response is at least 1 here: CC(C)N(CC[C@H](c1ccccc1)c1cc(CCNC(=O)CCOCCOCCOCCOCCNC(=O)CCc2ccc3n2[B-](F)(F)[N+]2=C(c4ccc[nH]4)C=CC2=C3)ccc1O)C(C)C [Tolterodine-2-NB590]
Output: 1
